// provenance: patent US20110118447A1

- Target Or System: binding partner of C5A (XPA23)
- Test Summary: Biacore K-off
Please provide measured fold difference in affinity vs original for the entries that follow.
Give bare numbers, in fold.

1. C5A (XPA23) VL A91T (antibody, V domains shown) VH: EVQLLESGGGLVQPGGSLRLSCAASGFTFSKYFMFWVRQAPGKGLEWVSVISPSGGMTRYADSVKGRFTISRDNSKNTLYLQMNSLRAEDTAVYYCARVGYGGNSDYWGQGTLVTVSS VL: DIQMTQSPSSVSASVGDRLTIICRASQDINRWLAWYQQTPGNAPKLLIHSATSLQSGVPSRFSGSGSGTDFTLTINSLQPEDFATYYCQQTDSFPLTFGGGTKVEIK : 0.67

Would you mind giving fold difference in affinity vs original for every binder in the list below?
1. C5A (XPA23) VL S50I (antibody, V domains shown) VH: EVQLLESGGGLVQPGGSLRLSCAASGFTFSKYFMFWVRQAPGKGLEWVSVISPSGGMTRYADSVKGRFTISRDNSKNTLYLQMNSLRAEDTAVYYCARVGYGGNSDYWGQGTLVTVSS VL: DIQMTQSPSSVSASVGDRLTIICRASQDINRWLAWYQQTPGNAPKLLIHIATSLQSGVPSRFSGSGSGTDFTLTINSLQPEDFATYYCQQADSFPLTFGGGTKVEIK
2. C5A (XPA23) VL N30A (antibody, V domains shown) VH: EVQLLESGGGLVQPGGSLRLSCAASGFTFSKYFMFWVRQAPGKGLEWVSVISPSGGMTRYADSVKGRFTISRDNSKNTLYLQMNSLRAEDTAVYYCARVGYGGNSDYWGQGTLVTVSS VL: DIQMTQSPSSVSASVGDRLTIICRASQDIARWLAWYQQTPGNAPKLLIHSATSLQSGVPSRFSGSGSGTDFTLTINSLQPEDFATYYCQQADSFPLTFGGGTKVEIK

[0.25, 0.61]
